Biological target: T1, human TREM2 on cells (human, UniProt Q9NZC2 19-230)
T1 sequence: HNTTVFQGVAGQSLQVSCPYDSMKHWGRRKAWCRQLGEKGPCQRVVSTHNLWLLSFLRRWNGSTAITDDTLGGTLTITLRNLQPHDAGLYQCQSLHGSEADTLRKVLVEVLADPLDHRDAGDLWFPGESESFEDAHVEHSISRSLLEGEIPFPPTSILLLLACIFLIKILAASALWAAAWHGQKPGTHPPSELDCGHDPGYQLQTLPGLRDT
Assay: cell-based or functional assay
Readout Type: Emax (% maximum activation compared to RnD antibody) (%)

Binder	Reading Unit	Value Reported
16B8 (antibody, human IgG4, V domains shown, human IgG4 (G4) from hybridoma) VH: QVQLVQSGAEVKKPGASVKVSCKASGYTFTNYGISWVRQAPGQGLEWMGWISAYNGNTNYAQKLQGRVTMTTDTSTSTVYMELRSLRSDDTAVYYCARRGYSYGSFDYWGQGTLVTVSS VL: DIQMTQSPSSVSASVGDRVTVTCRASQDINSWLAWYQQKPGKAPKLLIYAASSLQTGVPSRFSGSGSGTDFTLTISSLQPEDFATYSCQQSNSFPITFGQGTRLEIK	%	140
13E7 (antibody, human IgG2, V domains shown, human IgG2 from hybridoma) VH: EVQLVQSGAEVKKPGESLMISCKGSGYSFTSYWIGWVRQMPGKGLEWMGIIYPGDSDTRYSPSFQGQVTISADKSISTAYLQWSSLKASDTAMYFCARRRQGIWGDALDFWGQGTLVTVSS VL: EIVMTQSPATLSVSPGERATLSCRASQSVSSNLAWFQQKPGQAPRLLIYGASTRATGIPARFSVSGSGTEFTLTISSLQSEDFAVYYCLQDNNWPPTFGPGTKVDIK	%	460
4C5 (antibody, V domains shown, human IgG2 from hybridoma) VH: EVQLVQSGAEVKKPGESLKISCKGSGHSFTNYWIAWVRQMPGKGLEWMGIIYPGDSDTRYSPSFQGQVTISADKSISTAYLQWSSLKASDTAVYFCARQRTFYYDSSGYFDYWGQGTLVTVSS VL: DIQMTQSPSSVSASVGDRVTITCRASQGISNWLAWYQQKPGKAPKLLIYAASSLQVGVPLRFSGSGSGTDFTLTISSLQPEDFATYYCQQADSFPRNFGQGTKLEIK	%	265
32E3 (antibody, human IgG2, V domains shown, human IgG2 from hybridoma) VH: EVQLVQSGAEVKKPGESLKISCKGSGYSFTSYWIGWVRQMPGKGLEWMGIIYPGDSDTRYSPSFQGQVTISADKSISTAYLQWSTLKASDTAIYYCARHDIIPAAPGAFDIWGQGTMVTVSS VL: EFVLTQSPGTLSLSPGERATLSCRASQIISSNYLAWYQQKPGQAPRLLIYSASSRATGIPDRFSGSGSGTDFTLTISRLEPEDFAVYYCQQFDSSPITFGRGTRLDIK	%	197
6E7 (antibody, human IgG2, V domains shown, human IgG2 from hybridoma) VH: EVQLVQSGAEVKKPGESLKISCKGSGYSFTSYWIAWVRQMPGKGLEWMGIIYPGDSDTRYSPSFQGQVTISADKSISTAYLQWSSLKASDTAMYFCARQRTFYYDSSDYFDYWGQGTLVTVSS VL: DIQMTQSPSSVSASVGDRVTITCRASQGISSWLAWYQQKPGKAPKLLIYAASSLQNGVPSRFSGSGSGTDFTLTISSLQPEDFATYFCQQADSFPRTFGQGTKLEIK	%	273
5E3 (antibody, human IgG2, V domains shown, human IgG2 from hybridoma) VH: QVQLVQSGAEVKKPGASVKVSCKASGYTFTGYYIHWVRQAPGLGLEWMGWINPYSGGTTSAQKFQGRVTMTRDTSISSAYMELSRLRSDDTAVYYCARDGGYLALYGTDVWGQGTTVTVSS VL: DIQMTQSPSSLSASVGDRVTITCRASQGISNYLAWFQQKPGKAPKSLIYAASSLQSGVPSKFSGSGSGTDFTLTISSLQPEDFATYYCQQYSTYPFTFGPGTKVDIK	%	195
10E3 (antibody, human IgG2, V domains shown, human IgG2 from hybridoma) VH: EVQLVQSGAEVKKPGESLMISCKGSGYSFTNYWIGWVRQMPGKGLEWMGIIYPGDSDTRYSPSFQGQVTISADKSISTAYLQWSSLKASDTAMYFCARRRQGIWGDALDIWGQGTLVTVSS VL: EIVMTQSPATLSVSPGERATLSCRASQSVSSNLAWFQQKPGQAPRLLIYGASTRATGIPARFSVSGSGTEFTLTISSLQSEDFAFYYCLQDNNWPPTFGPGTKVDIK	%	456
4G10 (antibody, human IgG2, V domains shown, human IgG2 from hybridoma) VH: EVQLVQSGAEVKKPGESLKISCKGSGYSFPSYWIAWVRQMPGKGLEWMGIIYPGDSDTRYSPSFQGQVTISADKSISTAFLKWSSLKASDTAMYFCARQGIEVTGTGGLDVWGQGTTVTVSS VL: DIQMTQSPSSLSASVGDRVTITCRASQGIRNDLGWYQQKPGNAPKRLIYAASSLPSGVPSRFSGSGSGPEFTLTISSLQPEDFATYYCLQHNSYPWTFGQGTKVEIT	%	236
